Values from patent US10538555B2

# measured.target: Human PD-L1/PD-1 (Homo sapiens)
# Construct: TVMV protease cleavage site (C); made in house; host or cells: HEK293T cells
# Sequence (Q9NZQ7 with tags, fused parts or gaps): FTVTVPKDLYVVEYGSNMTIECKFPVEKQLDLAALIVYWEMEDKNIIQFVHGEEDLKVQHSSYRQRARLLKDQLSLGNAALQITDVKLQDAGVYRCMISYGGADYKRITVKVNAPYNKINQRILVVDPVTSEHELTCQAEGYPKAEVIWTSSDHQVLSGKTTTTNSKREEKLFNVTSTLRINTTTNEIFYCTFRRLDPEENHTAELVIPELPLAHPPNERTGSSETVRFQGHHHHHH
# procedure.text: HTRF Human PD-L1/PD-1 binding assay (PD-1-Ig/PD-L1-His)
# run.conditions: PD-L1-His 10 nM, PD-1-Ig 20 nM; class symbol; read-out: HTRF Human PD-L1/PD-1 Binding Assay IC50 Range
pIC50: −log10 of the molar value. Where a SMILES comes first, the peptide text is derived from it. Bridges are numbered along the chain shown (N, C = ends). [ ]: non-standard residue; d: D form. Hyp = O=C(O)[C@@H]1C[C@@H](O)CN1; NMeF = CN[C@@H](Cc1ccccc1)C(=O)O; NMeNle = CCCC[C@H](NC)C(=O)O; Pip = O=C(O)[C@@H]1CCCCN1; dThz = O=C(O)[C@H]1CSCN1; Dab = NCC[C@H](N)C(=O)O; Dap = NC[C@H](N)C(=O)O
Entries and their measured pIC50 follow.

compound | pIC50
CCCC[C@H]1C(=O)N(C)[C@@H](CCCC)C(=O)N[C@@H](CN)C(=O)N[C@H](C(=O)NCC(N)=O)CSCC(=O)N[C@@H](Cc2ccc(O)cc2)C(=O)N2CCCC[C@H]2C(=O)N[C@@H](CC(N)=O)C(=O)N2CCC[C@H]2C(=O)N[C@@H](CN)C(=O)N[C@@H](CCC(=O)O)C(=O)N2C[C@H](O)C[C@H]2C(=O)N[C@@H](Cc2c[nH]c3ccccc23)C(=O)N[C@@H](CCN)C(=O)N[C@@H](Cc2c[nH]c3ccccc23)C(=O)N1C [Example 1519] ({CH2CO}-Y[Pip]NP[Dap]E[Hyp]W[Dab]W[NMeNle][NMeNle][Dap]CG-NH2; thioether N-14) | 8.00 to 9.00

Switching to the query record.
The recorded pIC50 for CCCC[C@H]1C(=O)N2CCC[C@@H]2C(=O)N[C@@H](CC(=O)O)C(=O)N[C@@H](C(C)C)C(=O)N(C)[C@@H](Cc2ccccc2)C(=O)N[C@@H](Cc2ccc(O)cc2)C(=O)N2CSC[C@@H]2C(=O)N[C@@H](Cc2c[nH]c3ccccc23)C(=O)N[C@@H](Cc2ccc(O)cc2)C(=O)N[C@@H](CC(C)C)C(=O)N[C@H](C(=O)NCC(N)=O)CSCC(=O)N[C@@H](Cc2ccccc2)C(=O)N(C)[C@@H](Cc2ccccc2)C(=O)N1C [Example 10068] ({CH2CO}-F[NMeF][NMeNle][dP]DV[NMeF]Y[dThz]WYLCG-NH2; thioether N-13) is 8.00 to 9.00

====

# measured.target: Human PD-L1/PD-1 (Homo sapiens)
# Construct: TVMV protease cleavage site (C); made in house; host or cells: HEK293T cells
# procedure.text: HTRF Human PD-L1/PD-1 binding assay (PD-1-Ig/PD-L1-His)
# run.conditions: PD-L1-His 10 nM, PD-1-Ig 20 nM; class symbol; read-out: HTRF Human PD-L1/PD-1 Binding Assay IC50 Range
# From the text: Methods for Testing the Ability of Macrocyclic Peptides to Compete for the Binding of PD-1 to PD-L1 Using Homogenous Time-Resolved Fluorescence (HTRF) Binding Assays The ability of the macrocyclic peptides of the present disclosure to bind to PD-L1 was investigated using a PD-1/PD-L1 Homogenous Time-Resolved Fluorescence (HTRF) binding assay. Homogenous Time-Resolved Fluorescence (HTRF) Assays of Binding of Soluble PD-1 to Soluble PD-L1. […]
pIC50: −log10 of the molar value. Where a SMILES comes first, the peptide text is derived from it. Bridges are numbered along the chain shown (N, C = ends). [ ]: non-standard residue; d: D form. NMeF = CN[C@@H](Cc1ccccc1)C(=O)O; NMeNle = CCCC[C@H](NC)C(=O)O; Sar = CNCC(=O)O
Entries and their measured pIC50 follow.

compound | result
CCCC[C@H]1C(=O)N(C)[C@@H](CCCC)C(=O)N[C@@H](CCCN)C(=O)N[C@H](C(=O)NCC(N)=O)CSCC(=O)N[C@@H](Cc2ccc(O)cc2)C(=O)N2CCC(C)(C)[C@H]2C(=O)N[C@@H](CC(N)=O)C(=O)N2CCCC2C(=O)N[C@@H](Cc2cnc[nH]2)C(=O)N[C@@H](CC(C)C)C(=O)N2C[C@H](O)C[C@H]2C(=O)N[C@@H](Cc2c[nH]c3ccccc23)C(=O)N[C@@H](CO)C(=O)N[C@@H](Cc2c[nH]c3ccccc23)C(=O)N1C (some centres unmarked) | 5.00 to 6.00

Switching to the query record.
The recorded pIC50 for CCCC[C@H]1C(=O)N(C)CC(=O)N[C@@H](CC(=O)O)C(=O)N[C@@H](C(C)C)C(=O)N[C@@H](Cc2c[nH]c3ccccc23)C(=O)N[C@@H](Cc2ccc(O)cc2)C(=O)N(C)CC(=O)N[C@@H](Cc2c[nH]c3ccccc23)C(=O)N[C@@H](Cc2ccc(O)cc2)C(=O)N[C@@H](CC(C)C)C(=O)N[C@H](C(=O)NCC(N)=O)CSCC(=O)N[C@@H](Cc2ccccc2)C(=O)N(C)[C@@H](Cc2ccccc2)C(=O)N1C [Example 3232] ({CH2CO}-F[NMeF][NMeNle][Sar]DVWY[Sar]WYLCG-NH2; thioether N-13) is 5.00 to 6.00

====

# measured.target: Human PD-L1/PD-1 (Homo sapiens)
# Construct: TVMV protease cleavage site (C); made in house; host or cells: HEK293T cells
# procedure.text: HTRF Human PD-L1/PD-1 binding assay (PD-1-Ig/PD-L1-His)
# run.conditions: PD-L1-His 10 nM, PD-1-Ig 20 nM; class symbol; read-out: HTRF Human PD-L1/PD-1 Binding Assay IC50 Range
Where a SMILES comes first, the peptide text is derived from it. Bridges are numbered along the chain shown (N, C = ends). [ ]: non-standard residue; d: D form. ξ: configuration not given here. ξPro(4R-OH) = O=C(O)C1C[C@@H](O)CN1; Hyp = O=C(O)[C@@H]1C[C@@H](O)CN1; NMeF = CN[C@@H](Cc1ccccc1)C(=O)O; Aad = N[C@@H](CCCC(=O)O)C(=O)O; NMeNle = CCCC[C@H](NC)C(=O)O; hSer = N[C@@H](CCO)C(=O)O; ξR = N=C(N)NCCCC(N)C(=O)O; NMeA = CN[C@@H](C)C(=O)O; Orn = NCCC[C@H](N)C(=O)O; Dap = NC[C@H](N)C(=O)O; ξC = NC(CS)C(=O)O; Sar = CNCC(=O)O
Entries and their measured IC50 follow.

Known results for compounds:
compound | IC50
CCCC[C@H]1C(=O)N[C@@H](CC(N)=O)C(=O)N2CCC[C@H]2C(=O)N[C@@H](CO)C(=O)N[C@@H](CCO)C(=O)N2C[C@H](O)C[C@H]2C(=O)N[C@@H](Cc2c[nH]c3ccccc23)C(=O)N[C@@H](CCO)C(=O)N[C@@H](Cc2c[nH]c3ccccc23)C(=O)N(C)[C@@H](C)C(=O)N(C)[C@@H](C)C(=O)N[C@@H](CCCN)C(=O)NC(C(=O)NCC(N)=O)CSCC(=O)N[C@@H](Cc2ccc(O)cc2)C(=O)N1C (stereo partly shown) [Example 10219] ({CH2CO}-Y[NMeNle]NPS[hSer][Hyp]W[hSer]W[NMeA][NMeA][Orn][ξC]G-NH2; thioether N-14) | 1000 to 10000 nM
CCCC[C@H]1C(=O)N(C)[C@@H](CCCC)C(=O)N[C@@H](CCCNC(=N)N)C(=O)NC(C(=O)NCC(N)=O)CSCC(=O)N[C@@H](Cc2ccc(O)cc2)C(=O)N(C)[C@@H](C)C(=O)N[C@@H](CC(N)=O)C(=O)N2CCC[C@H]2C(=O)N[C@@H](CC(N)=O)C(=O)N[C@@H](CC(C)C)C(=O)N2CCC[C@H]2C(=O)N[C@@H](Cc2c[nH]c3ccccc23)C(=O)N[C@@H](CCO)C(=O)N[C@@H](Cc2c[nH]c3ccccc23)C(=O)N1C (stereo partly shown) [Example 9128] ({CH2CO}-Y[NMeA]NPNLPW[hSer]W[NMeNle][NMeNle]R[ξC]G-NH2; thioether N-14) | 1 to 9.9 nM
CCCC[C@H]1C(=O)N(C)CC(=O)N[C@@H](CC(N)=O)C(=O)N[C@@H](C(C)C)C(=O)N(C)[C@@H](Cc2ccccc2)C(=O)N[C@@H](Cc2ccc(O)cc2)C(=O)N(C)CC(=O)N[C@@H](Cc2c[nH]c3ccccc23)C(=O)N[C@@H](Cc2ccc(O)cc2)C(=O)N[C@@H](CC(C)C)C(=O)N[C@H](C(=O)NCC(N)=O)CSCC(=O)N[C@@H](Cc2ccccc2)C(=O)N(C)[C@@H](Cc2ccccc2)C(=O)N1C [Example 3237] ({CH2CO}-F[NMeF][NMeNle][Sar]NV[NMeF]Y[Sar]WYLCG-NH2; thioether N-13) | 10 to 99.9 nM

The recorded IC50 for CCCC[C@H]1C(=O)N(C)[C@@H](CCCC)C(=O)NC(CCCNC(=N)N)C(=O)N[C@H](C(=O)NCC(N)=O)CCCC(=O)N[C@@H](Cc2ccc(O)cc2)C(=O)N(C)[C@@H](C)C(=O)N[C@@H](CC(N)=O)C(=O)N2CCC[C@H]2C(=O)N[C@@H](CN)C(=O)N[C@@H](CC(C)C)C(=O)N2C[C@H](O)CC2C(=O)N[C@@H](Cc2c[nH]c3ccccc23)C(=O)N[C@@H](CO)C(=O)N[C@@H](Cc2c[nH]c3ccccc23)C(=O)N1C (stereo partly drawn) [Example 7067] (Y[NMeA]NP[Dap]L[ξPro(4R-OH)]WSW[NMeNle][NMeNle][ξR][Aad]G-NH2; lactam N-14) is 10 to 99.9 nM
